assay: Plasma pharmacokinetics, cycle 1 day 1, noncompartmental; type: in vivo, Japanese patients; settings: human, plasma; 400 mg oral, cycle 1 day 1, n = 12; mean ± SD

# compound.structure, Cmax (ng/mL)
measured = [
    ("C[C@]1(c2nc3c(C(N)=O)cccc3[nH]2)CCCN1", 3280),
]

The measured values listed here are drawn from paper PMC5581522.
